B1: CPEB3 Ribozyme (parent)
chain: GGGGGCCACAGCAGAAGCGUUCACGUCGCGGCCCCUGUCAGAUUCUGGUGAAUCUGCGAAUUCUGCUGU

Variants of: B1
Assay: self-cleavage, relative activity (ratio to wild type); higher = more cleavage; co-transcriptional
recorded-endpoint: self-cleavage
// keep it numeric: no unit symbol after the value

Worked examples follow.
residue-change	assay-result
G47A A60C	0.397
C18G G56A	0.107
G5A A42C	0.505
U55G A59U	0.394

Q: // returns reported self-cleavage for input G14A U21G
Result: 0.121

Q: Thanks! And C29G C34A ?
Result: 0.227

Q: Thanks! And G5C G14C ?
Result: 0.146

Q: Thanks! And G14A U49G ?
Result: 0.842

Q: Thanks! And G37U C45A ?
Result: 0.295
